Origin of the recorded values: ChEMBL document CHEMBL1201862

# Tested on: SF-268
# method: NCI tumour cell line growth inhibition, 48 h
Active and inactive are the calls of the source. Rule as the data show it: active = GI50 up to about 1.1 µM and inactive = higher.
Assignment: determine reported GI50 for the given molecules.

Lookup: What GI50 appears in the records for this molecule with SF-268? CCCC(CCN)(CCN)[N+](=O)[O-]
Found: > 100 µM (inactive)

Lookup: What GI50 appears in the records for this molecule with SF-268? C=C(C(=C)P(=S)(C(C)C)C(C)C)P(=S)(C(C)C)C(C)C
Found: > 100 µM (inactive)

Lookup: What GI50 appears in the records for this molecule with SF-268? Cc1nc2ccc(NC3OC(CO)C(O)C(O)C3O)cc2c(=O)n1-c1ccccc1 (stereo not given)
Found: > 100 µM (inactive)

Lookup: What GI50 appears in the records for this molecule with SF-268? C1=N\CCN2CCN(CC/N=C\c3ccccc3OCc3cccc(n3)COc3ccccc3/1)CC2
Found: 2.15 µM (inactive)

Lookup: What GI50 appears in the records for this molecule with SF-268? CCOC(=O)c1c(N)nn2c1cc1cccccc12
Found: 24.5 µM (inactive)

Lookup: What GI50 appears in the records for this molecule with SF-268? S=C1NCCN1C(=S)NC1CCCCC1
Found: 34.7 µM (inactive)

Lookup: What GI50 appears in the records for this molecule with SF-268? CN(C(=O)Cc1cccc(N=C=S)c1)[C@H]1CCCC[C@@H]1N1CCCC1
Found: 20 µM (inactive)

Lookup: What GI50 appears in the records for this molecule with SF-268? COc1cc(C)c(S(=O)(=O)N(CCCN)OCCCN)c(C)c1C
Found: 36.7 µM (inactive)

Lookup: What GI50 appears in the records for this molecule with SF-268? O=c1c2ccccc2nc2n1CCc1c-2[nH]c2cc3c(cc12)OCO3
Found: 5.41 µM (inactive)

Lookup: What GI50 appears in the records for this molecule with SF-268? CCOC(=O)c1c(CN2CCCC2)n(-c2ccccc2)c2cc(Br)c(OC)cc12
Found: 46.6 µM (inactive)

Lookup: What GI50 appears in the records for this molecule with SF-268? Cc1ccc2c(c1)SC(c1cc3c(cc1Br)OCO3)S2 (stereo not given)
Found: > 31.6 µM (inactive)

Lookup: What GI50 appears in the records for this molecule with SF-268? CC(C)(C)OC(=O)NC(Cc1ccc(OC(C)(C)C)cc1)C(=O)N[C@H]1CCC[C@H]1C(=O)NC(Cc1ccccc1)C(=O)N1CCCC1C(N)=O (stereo not given in full)
Found: > 100 µM (inactive)

Lookup: What GI50 appears in the records for this molecule with SF-268? CC(C)(CO)CNc1cc(Cl)nc(N)n1
Found: > 100 µM (inactive)

Lookup: What GI50 appears in the records for this molecule with SF-268? CC1(C)OC(=O)CC12CCN(Cc1ccccc1)CC2
Found: > 100 µM (inactive)

Lookup: What GI50 appears in the records for this molecule with SF-268? COc1c(Sc2c(SCSc3cnc4ccccc4c3Sc3cnc4ccccc4c3OC)cnc3ccccc23)cnc2ccccc12
Found: > 100 µM (inactive)

* * *

# Tested on: UO-31
# method: NCI tumour cell line growth inhibition, 48 h
Activity calls are given as the source filed them. Rule as the data show it: active = GI50 up to about 1.1 µM and inactive = higher.
assay-metric: GI50

Lookup: What measured GI50 goes with COC(=O)C1C(C(=O)OC)C2(OC)c3ccccc3-c3ccccc3C12 (centres undefined) ?
Found: 31 µM (inactive)

Lookup: What measured GI50 goes with O=C(Nc1cccc(C(F)(F)F)c1)c1cc(Br)cc(Br)c1O ?
Found: 2.35 µM (inactive)

Lookup: What measured GI50 goes with C/C(=C\c1ccccc1)C(=O)NCc1ccc(C(=O)NCCc2c[nH]c3ccccc23)cc1 ?
Found: 51.6 µM (inactive)

Lookup: What measured GI50 goes with FC(F)(F)c1ccc(C2=N/S(c3ccccc3)=N\C(c3ccc(C(F)(F)F)cc3)=N/S(c3ccccc3)=N\2)cc1 (centres undefined) ?
Found: > 100 µM (inactive)

Lookup: What measured GI50 goes with NC(=S)C1=C(N)Oc2c(c(=O)oc3ccccc23)C1c1ccc(Br)cc1 (centres undefined) ?
Found: > 100 µM (inactive)

Lookup: What measured GI50 goes with CC(=O)c1c(O)c2c([nH]c1=O)CCCC2 ?
Found: 17.2 µM (inactive)

Lookup: What measured GI50 goes with CCCC(CCN)(CCN)[N+](=O)[O-] ?
Found: > 100 µM (inactive)

Lookup: What measured GI50 goes with O=C1/C(=C2\Sc3c(ccc(Cl)c3Cl)C2=O)Sc2c1ccc(Cl)c2Cl ?
Found: > 100 µM (inactive)

Lookup: What measured GI50 goes with CCN(CC)c1cccc2c1C1(O)CCC3(CC21)OCCCCO3 (centres undefined) ?
Found: > 100 µM (inactive)

Lookup: What measured GI50 goes with COc1ccc(Cn2c3c(cc(OC(C)=O)c2=O)Cc2ccccc2-3)cc1 ?
Found: 5.56 µM (inactive)

Lookup: What measured GI50 goes with CN(C)c1n/c(=N/c2ccc3ccccc3c2)ss1 ?
Found: 23.4 µM (inactive)

Lookup: What measured GI50 goes with Cc1ccc(S(=O)(=O)NNC(=O)Nc2ccc(Cl)cc2)cc1 ?
Found: > 100 µM (inactive)

Lookup: What measured GI50 goes with C=C(C(=C)P(=S)(C(C)C)C(C)C)P(=S)(C(C)C)C(C)C ?
Found: > 100 µM (inactive)

Lookup: What measured GI50 goes with CCOc1cc(NC(C)=O)ccc1C(=O)NN1C(=O)CSC1c1ccc(O)c(OC)c1 (centres undefined) ?
Found: 10.8 µM (inactive)

Lookup: What measured GI50 goes with COC(=O)[C@@H]1C(=O)O[C@@H](c2cc(OC)c(OC)cc2OC)[C@@H]1C(=O)OC.COC(=O)[C@H]1C(=O)O[C@@H](c2cc(OC)c(OC)cc2OC)[C@@H]1C(=O)OC ?
Found: > 100 µM (inactive)

Lookup: What measured GI50 goes with CC(C)(C)OC(=O)NC(Cc1ccc(OC(C)(C)C)cc1)C(=O)N[C@H]1CCC[C@H]1C(=O)NC(Cc1ccccc1)C(=O)N1CCCC1C(N)=O (some centres undefined) ?
Found: > 100 µM (inactive)

Lookup: What measured GI50 goes with CC(C)(C)OC(=O)NC(C)(C)C(=O)NCCC(=O)O ?
Found: > 100 µM (inactive)

Lookup: What measured GI50 goes with COC(=O)C1C(O)C(C)C(O)C(C)(O)C=C(C)C2=C3C(=C(C)C(=O)c4c(O)c(c(C)c(OC(C)=O)c43)NC(=O)C(C)=C/C=C\C(C)(O)C(O)C(C)C1O)OCO2 (centres undefined) ?
Found: 91.6 µM (inactive)

Lookup: What measured GI50 goes with O=C(CCNC(=O)OCc1ccccc1)OCCCNC(=O)OCc1ccccc1 ?
Found: > 100 µM (inactive)

Lookup: What measured GI50 goes with Cc1cc2c([N+](=O)[O-])cc3c(c2o1)C(=O)C=CC3=O ?
Found: 1.67 µM (inactive)

Lookup: What measured GI50 goes with CC1=NN(c2nc(N)nc(CO)n2)C(C)(C)C1 ?
Found: > 100 µM (inactive)

Lookup: What measured GI50 goes with O=C(O)Cc1ccc([N+](=O)[O-])cc1[N+](=O)[O-] ?
Found: > 100 µM (inactive)

Lookup: What measured GI50 goes with N#CC(C(=O)C(=O)C(C#N)c1ccc(Br)cc1)c1ccc(Br)cc1 (centres undefined) ?
Found: 16.3 µM (inactive)

Lookup: What measured GI50 goes with O=C(CSc1nnc(Cc2ccccc2)o1)Nc1ccc(Cl)cc1Cl ?
Found: > 100 µM (inactive)

* * *

Assignment: determine reported GI50 for the given molecules.
# System: SK-MEL-2
# method: NCI tumour cell line growth inhibition, 48 h
Activity calls are given as the source filed them. Rule as the data show it: active = GI50 up to about 1.1 µM and inactive = higher.

Lookup: What GI50 appears in the records for this molecule with SK-MEL-2? O=C(/C=C\c1ccccc1O)c1ccc(O)cc1O
Found: > 100 µM (inactive)

Lookup: What GI50 appears in the records for this molecule with SK-MEL-2? CN(C)CCCc1cccc2[nH]c3c(c12)CN(C)CC3
Found: > 100 µM (inactive)

Lookup: What GI50 appears in the records for this molecule with SK-MEL-2? C=C=C(Sc1ccccc1)C(C)(C)O
Found: > 100 µM (inactive)

Lookup: What GI50 appears in the records for this molecule with SK-MEL-2? COc1cc2c(cc1OC)C1Cc3cc(OC)c(OC)cc3N1CC2 (configuration not stated)
Found: 52.4 µM (inactive)

Lookup: What GI50 appears in the records for this molecule with SK-MEL-2? COC(OC)[C@@H]1OC[C@H](n2cnc3c(N)ncnc32)[C@H]1O
Found: > 100 µM (inactive)

Lookup: What GI50 appears in the records for this molecule with SK-MEL-2? Cc1cnc2[nH]c(-c3cccc(F)c3)cc(=O)c2c1
Found: 0.0802 µM (active)

Lookup: What GI50 appears in the records for this molecule with SK-MEL-2? Nc1nc(Cl)nc2c1ncn2C1CC(O)C(CO)O1 (configuration not stated)
Found: > 100 µM (inactive)

Lookup: What GI50 appears in the records for this molecule with SK-MEL-2? Cc1ccc(S(=O)(=O)NNC(=O)Nc2ccc(Cl)cc2)cc1
Found: > 100 µM (inactive)

Lookup: What GI50 appears in the records for this molecule with SK-MEL-2? COC(=O)Cc1c(/C=C/C(C)(C)n2cnc(CCN3C(=O)CCC3=O)c2)[nH]c2ccccc12
Found: > 100 µM (inactive)

Lookup: What GI50 appears in the records for this molecule with SK-MEL-2? Cc1cc2c(C)n[nH]c2c(C(=O)O)c1C
Found: > 100 µM (inactive)

Lookup: What GI50 appears in the records for this molecule with SK-MEL-2? O=C(Cc1nc2ccccc2s1)C(=O)Nc1ccc(Cl)cc1
Found: > 100 µM (inactive)

Lookup: What GI50 appears in the records for this molecule with SK-MEL-2? COc1ccc(-c2oc3c(OC)c(OC)cc(O)c3c(=O)c2OC)cc1
Found: > 100 µM (inactive)

Lookup: What GI50 appears in the records for this molecule with SK-MEL-2? c1ccc2c(Cc3[nH]c4ccccc4c3Cc3c[nH]c4ccccc34)c[nH]c2c1
Found: 2.36 µM (inactive)

Lookup: What GI50 appears in the records for this molecule with SK-MEL-2? C/C1=C\CC[C@@]2(C)O[C@@H]2C[C@@H]2[C@H](C/C(C)=C/CC1)OC(=O)C21CC1
Found: > 100 µM (inactive)

Lookup: What GI50 appears in the records for this molecule with SK-MEL-2? CC(=O)c1cccc(Nc2nc3ccc(Cl)cc3c3[nH]c4ccccc4c23)c1
Found: 3.36 µM (inactive)

Lookup: What GI50 appears in the records for this molecule with SK-MEL-2? Cc1c(-c2ccccc2)c(=O)oc2ccc(Cl)cc12
Found: > 100 µM (inactive)

Lookup: What GI50 appears in the records for this molecule with SK-MEL-2? Cc1nc2c(o1)C(=O)c1ccccc1/C2=N/C1CCCCC1N (configuration not stated)
Found: 0.867 µM (active)
